Entry source: ChEMBL document CHEMBL3792377

# TARGET_UNDER_TEST: D(4) dopamine receptor (Homo sapiens, UniProt P21917)
# Sequence (P21917 whole entry): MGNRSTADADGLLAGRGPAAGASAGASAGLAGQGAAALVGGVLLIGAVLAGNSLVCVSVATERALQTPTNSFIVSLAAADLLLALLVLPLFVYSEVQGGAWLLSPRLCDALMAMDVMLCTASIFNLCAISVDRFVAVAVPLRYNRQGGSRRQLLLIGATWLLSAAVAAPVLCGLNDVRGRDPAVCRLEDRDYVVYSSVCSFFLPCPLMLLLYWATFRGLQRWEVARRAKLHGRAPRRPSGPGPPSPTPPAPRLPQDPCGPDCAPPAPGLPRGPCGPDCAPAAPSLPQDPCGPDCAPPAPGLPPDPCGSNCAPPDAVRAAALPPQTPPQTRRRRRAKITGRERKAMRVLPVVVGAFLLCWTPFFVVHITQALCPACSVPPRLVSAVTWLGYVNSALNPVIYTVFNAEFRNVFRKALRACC
# PROCEDURE_TEXT: Displacement of [3H]-Spiperone from human recombinant dopamine D4 receptor expressed in CHOK1 cells
PROPERTY: pIC50
Schema: pIC50 number; meaning minus log10 of the concentration expressed in molar units.

Query block: Tell me the measured pIC50 of Clc1ccc(CN2CCO[C@H](COc3cccc(Cl)n3)C2)cc1 , please.
Result block: 7.00

Query block: Tell me the measured pIC50 of COc1ccc2[nH]cc(CN3CCO[C@H](COc4ccccc4)C3)c2c1 , please.
Result block: 6.34

Query block: Tell me the measured pIC50 of COc1cc(CN2CCO[C@H](COc3cccc(F)c3)C2)ccc1Cl , please.
Result block: 7.43

Query block: Tell me the measured pIC50 of Clc1ccc(CN2CCO[C@H](COc3cccnc3)C2)cc1 , please.
Result block: 6.99

Query block: Tell me the measured pIC50 of COc1ccc(CN2CCO[C@H](COc3ccccc3)C2)cc1 , please.
Result block: 6.80

Query block: Tell me the measured pIC50 of Clc1ccc(CN2CCO[C@H](COc3ccccc3)C2)cc1 , please.
Result block: 6.82

Query block: Tell me the measured pIC50 of c1ccc(OC[C@@H]2CN(Cc3cn4ccccc4n3)CCO2)cc1 , please.
Result block: 6.23

Query block: Tell me the measured pIC50 of Clc1ccc2[nH]cc(CN3CCO[C@H](COc4ccccc4)C3)c2c1 , please.
Result block: 6.89

Query block: Tell me the measured pIC50 of Cc1ccc(CN2CCO[C@H](COc3ccccc3)C2)cc1C , please.
Result block: 7.35

Query block: Tell me the measured pIC50 of c1ccc(OC[C@@H]2CN(Cc3ccc4ccccc4c3)CCO2)cc1 , please.
Result block: 7.19

Query block: Tell me the measured pIC50 of COc1ccc(CN2CCO[C@H](COc3cccc(F)n3)C2)cc1Cl , please.
Result block: 6.59
